- tested.on: cytochrome P450 BM3 (Priestia megaterium, UniProt P14779)
- Sequence (P14779 whole entry): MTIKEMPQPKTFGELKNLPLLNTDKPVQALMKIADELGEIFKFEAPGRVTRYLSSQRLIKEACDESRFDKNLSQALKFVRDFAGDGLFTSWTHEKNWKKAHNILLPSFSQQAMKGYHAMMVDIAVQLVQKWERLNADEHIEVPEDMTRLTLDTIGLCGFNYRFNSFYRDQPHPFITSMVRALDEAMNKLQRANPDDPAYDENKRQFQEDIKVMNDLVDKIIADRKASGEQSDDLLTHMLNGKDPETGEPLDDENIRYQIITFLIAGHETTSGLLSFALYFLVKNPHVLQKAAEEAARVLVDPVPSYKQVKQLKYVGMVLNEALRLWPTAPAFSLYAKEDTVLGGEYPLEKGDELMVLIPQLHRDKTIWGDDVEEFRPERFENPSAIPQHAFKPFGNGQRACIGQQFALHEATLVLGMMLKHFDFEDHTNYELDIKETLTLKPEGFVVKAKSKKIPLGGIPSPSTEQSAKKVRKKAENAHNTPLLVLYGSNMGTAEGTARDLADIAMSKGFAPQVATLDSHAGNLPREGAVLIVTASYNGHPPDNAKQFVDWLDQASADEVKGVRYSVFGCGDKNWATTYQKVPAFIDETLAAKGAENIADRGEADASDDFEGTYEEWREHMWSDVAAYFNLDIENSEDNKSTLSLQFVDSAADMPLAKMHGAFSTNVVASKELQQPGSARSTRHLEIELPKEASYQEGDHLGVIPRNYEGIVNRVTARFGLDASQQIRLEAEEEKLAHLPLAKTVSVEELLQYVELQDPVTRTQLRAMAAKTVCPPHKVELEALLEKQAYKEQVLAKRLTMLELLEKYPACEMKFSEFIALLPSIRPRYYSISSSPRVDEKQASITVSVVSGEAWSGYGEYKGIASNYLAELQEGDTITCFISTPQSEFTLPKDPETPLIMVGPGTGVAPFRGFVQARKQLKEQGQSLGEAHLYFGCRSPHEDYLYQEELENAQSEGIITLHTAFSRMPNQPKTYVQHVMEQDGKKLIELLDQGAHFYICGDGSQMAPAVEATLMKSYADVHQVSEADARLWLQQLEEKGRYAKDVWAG
- test.details: Hydrogen peroxide determination (uncoupling) by HRP/ABTS assay, purified enzyme
- Type: biochemical, Bacillus megaterium
- Design: expressed in transfected cells; host or cells: E. coli BL21(DE3) transformed with pT7Bm3Z
- test.settings: 150 μM NADPH
Each entry below carries its reported % H2O2.

compound: ClC(Cl)C(Cl)Cl
unit.string: %
% H2O2: 0
--
compound: CCCCC/C=C\C/C=C\C/C=C\C/C=C\CCCC(=O)O
unit.string: %
% H2O2: 0.11
--
compound: CCCCCCCCCCCCOS(=O)(=O)[O-].[Na+] [SDS, sodium dodecyl sulphate]
unit.string: %
% H2O2: 0.63
--
compound: CCCCCCCCCCCC(=O)O
unit.string: %
% H2O2: 0.66

====

- tested.on: UniProtKB P14779
- test.details: Substrate binding by spectral titration of the haem high spin band, purified enzyme (in vitro)
- Set-up: expressed in transfected cells; host or cells: E. coli BL21(DE3) transformed with pT7Bm3Z; species or system Bacillus megaterium
- test.settings: printed as an order-of-magnitude range in M, read-out: Kd
pKd: −log10 of the molar value.
quantity.kind: pKd

compound: CCCCC/C=C\C/C=C\C/C=C\C/C=C\CCCC(=O)O [AA, arachidonic acid]
tested.on: UniProtKB P14779
quantity.kind: pKd
measured.result: ~7.00

====

- tested.on: cytochrome P450 BM3 (Priestia megaterium, UniProt P14779)
- test.details: Alkali assay of NADP+ production in whole E.coli BL21(DE3) cells expressing P450 BM3 (in vivo assay)
- test.settings: substrate or no-interaction with P450 BM3
quantity.kind: R (Remark)

molecule: CCCCCC
measured.result: N
--
molecule: CCCCC/C=C\C/C=C\C/C=C\C/C=C\CCCC(=O)O
measured.result: S
--
molecule: ClC(Cl)C(Cl)Cl
measured.result: S
--
molecule: CCCCCCCCCCCC(=O)O
measured.result: S
--
molecule: CCCCCCCCCCCCOS(=O)(=O)[O-].[Na+] [SDS, sodium dodecyl sulphate]
measured.result: S

The measured values listed here are drawn from patent US6927039B2.
